The measurements presented in this section are drawn from paper PMC7026387.

List of solubility thermodynamic at 24 h values.
- ASSAY_NAME: Aqueous solubility (pH 7) by modified shake flask method and RP-HPLC
- Format: physicochemical
- CONDITION_DESCRIPTION: Milli-Q water, pH 7, 25°C, 24 h shaking, RP-HPLC; read-out: Experimental S value
For clarity, give the value followed by its unit.

[
  {
    "MOLECULE": "Cc1nc2c(c(-c3nc(Nc4c[nH]nc4C(=O)Nc4ccc(N5CCNCC5)cc4)c4ccsc4n3)n1)CCCC2 [SC4]",
    "solubility thermodynamic at 24 h": "105 µg/mL"
  },
  {
    "MOLECULE": "Cc1nc(Nc2c[nH]nc2C(=O)Nc2ccc(CN3CCOCC3)cc2)c2cc(C(C)C)sc2n1 [SC3]",
    "solubility thermodynamic at 24 h": "60.7 µg/mL"
  }
]

Turning to the following molecule.
Input line: Which solubility thermodynamic at 24 h value belongs to N#CCC(=O)c1cc(C#N)cs1 [SC1] ?
Output line: 30.7 µg/mL

====

- ASSAY_NAME: Aqueous solubility (pH 7) by modified shake flask method and RP-HPLC
- Assay type: physicochemical
- CONDITION_DESCRIPTION: pH 7, water
- Description: In one of our drugs discovering projects toward antitumor therapeutics, a series of novel FLT3 inhibitors were designed and synthesized using the structure-based drug design methods. The aqueous solubilities (pH = 7) of these compounds were measured using the modified shake flask method and RP-HPLC ([34], [35]). Each compound was added into a 1.5 mL Eppendorf tube containing Milli-Q water (1 mL) to form the precipitates at 25°C. Then the mixture was subjected to a solubility-equilibrium stage. […]
MEASURED_QUANTITY: solubility thermodynamic at 24 h (µg/mL)
Form entry: value (µg/mL) — number only.

[
  {
    "MOLECULE": "COc1ccc(Oc2ccc3c(NC(=O)c4ccc(NC5CCN(C)CC5)cc4)n[nH]c3c2)cc1 [SC5]",
    "MEASUREMENT_UNIT": "µg/mL",
    "solubility thermodynamic at 24 h": 19.7
  }
]

From here, focus on the item given below.
Input line: Could you tell me which solubility thermodynamic at 24 h is on file for N#Cc1csc(-c2cc(N)[nH]n2)c1 [SC2] ?
Output line: 31.7
